Tested on: Neutrophil Count (ANC)
Method notes: Lookup table: marker validity (nadir) window, Neutrophil Count (ANC)
Type: in vivo
Test parameters: upper limit of nadir range, days elapsed between current dose and marker
Output Satisfied for records whose Neutrophil Count (ANC) UL is lower than 20 days, Not satisfied for records at or above 20 days.

Would you please look over these solved cases?
{"columns": ["Molecule", "Assay system", "Assigned label"],
 "data": [
  ["CC(=O)O[C@@]12CO[C@@H]1C[C@H](O)[C@@]1(C)C(=O)[C@H](O)C3=C(C)[C@@H](OC(=O)[C@H](O)[C@@H](NC(=O)OC(C)(C)C)c4ccccc4)C[C@@](O)([C@@H](OC(=O)c4ccccc4)[C@H]21)C3(C)C", "Neutrophil Count (ANC)", "Satisfied"],
  ["N.N.[Cl][Pt][Cl] [Cisplatin]", "Neutrophil Count (ANC)", "Not satisfied"],
  ["Nc1ccn([C@@H]2O[C@H](CO)[C@@H](O)C2(F)F)c(=O)n1", "Neutrophil Count (ANC)", "Satisfied"],
  ["CC(=O)O[C@H]1C(=O)[C@@]2(C)[C@H]([C@H](OC(=O)c3ccccc3)[C@]3(O)C[C@H](OC(=O)[C@H](O)[C@@H](NC(=O)c4ccccc4)c4ccccc4)C(C)=C1C3(C)C)[C@]1(OC(C)=O)CO[C@@H]1C[C@@H]2O", "Neutrophil Count (ANC)", "Satisfied"]
]}

Exercise: Threshold test, Neutrophil Count (ANC) UL < 20 days: `N.N.O=C([O-])C1(C(=O)[O-])CCC1.[Pt+2]`
Solution: Not satisfied
